Target: FXa human (Homo sapiens, UniProt P00742)
Construct: from tissue; host or cells: human plasma
Sequence (P00742 235-488 limits assumed): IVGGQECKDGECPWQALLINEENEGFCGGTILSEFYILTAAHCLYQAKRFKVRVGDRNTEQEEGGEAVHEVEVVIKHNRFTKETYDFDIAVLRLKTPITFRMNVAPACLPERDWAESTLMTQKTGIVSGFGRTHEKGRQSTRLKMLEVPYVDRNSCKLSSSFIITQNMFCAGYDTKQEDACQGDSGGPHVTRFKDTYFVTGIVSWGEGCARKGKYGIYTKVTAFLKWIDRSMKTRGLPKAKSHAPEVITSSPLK
Sequence (P00742 41-179 partner limits assumed): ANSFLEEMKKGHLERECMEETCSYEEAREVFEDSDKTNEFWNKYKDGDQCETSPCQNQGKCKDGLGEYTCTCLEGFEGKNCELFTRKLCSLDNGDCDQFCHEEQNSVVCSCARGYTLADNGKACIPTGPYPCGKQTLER
Test: Determination of kinetic constants for FXa human (plasma activated with RVV+CaCl2)
Type: biochemical
Conditions: substrate 0.1-0.7 mmol/l, trisbuffer pH 7.0, I=0.25, polybrene, 37° C.
READOUT TYPE: Km (µM)
Output spec: scalar in µM, unitless text.

State the recorded Km for this entry: N=C(N)NCCC[C@H](NC(=O)CNC(=O)[C@@H](CCCNC(=N)N)NS(=O)(=O)Cc1ccccc1)C(=O)Nc1ccc([N+](=O)[O-])cc1 [Example 16, N^α --Bzls--D--Arg--Gly--Arg--pNA.2HCl]
50

###

Target: Thrombin bovine (Bos taurus)
Construct: Thrombin bovine (KabiVitrum) with a constant concentration E0 =1.3 nmol/l; purchased KabiVitrum
Test: Determination of thrombin sensitivity
Assay type: biochemical
Conditions: Thrombin bovine E0=1.3 nmol/l; substrate 0.1-0.4 mmol/l; trisbuffer pH 8.3, I=0.25, 37° C.
Square brackets hold non-standard residues; d marks the D form. Peptide text beside a SMILES is read from it. * marks the point of attachment. pNA = O=[N+]([O-])c1ccc(N*)cc1; Cbz = O=C(OCc1ccccc1)*; Ms = CS(=O)(=O)*
Below: a set of entries, each annotated with reported Km.
Output spec: scalar in µM, unitless text.

N=C(N)NCCC[C@H](NC(=O)CNC(=O)[C@@H](CCCNC(=N)N)NS(=O)(=O)Cc1ccccc1)C(=O)Nc1ccc([N+](=O)[O-])cc1 [Example 16, N^α --Bzls--D--Arg--Gly--Arg--pNA.2HCl]; 160
N=C(N)NCCC[C@H](NC(=O)CNC(=O)[C@@H](CCCNC(=N)N)NC(=O)OCc1ccccc1)C(=O)Nc1ccc([N+](=O)[O-])cc1 [Example 1, N^α --Z--D--Arg--Gly--Arg--pNA.2HCl] (Cbz-[dR]-Gly-Arg-pNA); 130
COc1ccc(COC(=O)N[C@H](CCCNC(=N)N)C(=O)NCC(=O)N[C@@H](CCCNC(=N)N)C(=O)Nc2ccc([N+](=O)[O-])cc2)cc1 [Example 9, N^α --Moz--D--Arg--Gly--Arg--pNA.2HCl]; 73
CCS(=O)(=O)N[C@H](CCCNC(=N)N)C(=O)NCC(=O)N[C@@H](CCCNC(=N)N)C(=O)Nc1ccc([N+](=O)[O-])cc1 [Example 4, N^α --Ets--D--Arg--Gly--Arg--pNA.2HCl]; 410

Could you now look at the following compound, please?
State the recorded Km for this entry: CC(C)C[C@@H](NS(C)(=O)=O)C(=O)NCC(=O)N[C@@H](CCCNC(=N)N)C(=O)Nc1ccc([N+](=O)[O-])cc1 [CBS 31.39, CH3 SO2 --D--Leu--Gly--Arg--pNA.AcOH] (Ms-[dL]-Gly-Arg-pNA)
230

###

Below: a set of entries, each annotated with reported Km.
Target: FXa human (Homo sapiens)
Construct: from tissue; host or cells: human plasma
Experiment: Determination of kinetic constants for FXa human (plasma activated with RVV+CaCl2)
Assay type: biochemical
Conditions: substrate 0.1-0.7 mmol/l, trisbuffer pH 7.0, I=0.25, polybrene, 37° C.
Square brackets hold non-standard residues; d marks the D form. Peptide text beside a SMILES is read from it. * marks the point of attachment. pNA = O=[N+]([O-])c1ccc(N*)cc1; Cbz = O=C(OCc1ccccc1)*; Ms = CS(=O)(=O)*
Output spec: scalar in µM, unitless text.

Illustrative cases are given below, each with its answer.
CCS(=O)(=O)N[C@H](CCCNC(=N)N)C(=O)NCC(=O)N[C@@H](CCCNC(=N)N)C(=O)Nc1ccc([N+](=O)[O-])cc1 [Example 4, N^α --Ets--D--Arg--Gly--Arg--pNA.2HCl]; 340
N=C(N)NCCC[C@H](NC(=O)CNC(=O)[C@@H](CCCNC(=N)N)NC(=O)OCc1ccccc1)C(=O)Nc1ccc([N+](=O)[O-])cc1 [Example 1, N^α --Z--D--Arg--Gly--Arg--pNA.2HCl] (Cbz-[dR]-Gly-Arg-pNA); 380
COc1ccc(COC(=O)N[C@H](CCCNC(=N)N)C(=O)NCC(=O)N[C@@H](CCCNC(=N)N)C(=O)Nc2ccc([N+](=O)[O-])cc2)cc1 [Example 9, N^α --Moz--D--Arg--Gly--Arg--pNA.2HCl]; 210

Could you now look at the following compound, please?
State the recorded Km for this entry: CC(C)C[C@@H](NS(C)(=O)=O)C(=O)NCC(=O)N[C@@H](CCCNC(=N)N)C(=O)Nc1ccc([N+](=O)[O-])cc1 [CBS 31.39, CH3 SO2 --D--Leu--Gly--Arg--pNA.AcOH] (Ms-[dL]-Gly-Arg-pNA)
1060
